# target of assay: human CXCR4 receptor (human, UniProt P61073 1-352)
# Sequence (P61073 whole entry): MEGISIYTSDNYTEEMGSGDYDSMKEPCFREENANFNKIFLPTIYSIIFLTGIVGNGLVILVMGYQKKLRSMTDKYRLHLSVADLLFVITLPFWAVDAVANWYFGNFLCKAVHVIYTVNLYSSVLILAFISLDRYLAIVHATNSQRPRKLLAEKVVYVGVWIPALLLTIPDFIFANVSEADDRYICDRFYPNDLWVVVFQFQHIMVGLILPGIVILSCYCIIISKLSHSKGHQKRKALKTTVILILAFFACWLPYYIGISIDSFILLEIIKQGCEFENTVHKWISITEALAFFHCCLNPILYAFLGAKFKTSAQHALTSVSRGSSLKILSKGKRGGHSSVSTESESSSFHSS
# experiment: cell-based or functional assay
Just a reminder that ties go to no (0): only IC50 in [^35S]GTPγS binding, NIH3T3/CXCR4 cells strictly below 4 nM counts as yes (1).

{"binder": "humanized antibody Hz515H7 VH1 D76N VL2 (antibody, human IgG1, kappa, V domains shown, human IgG1/kappa format; Biotinylated in the IHC study; also called hz515H7VL2; hz515H7 VH D76N VL2) VH: EVQLVESGGGLVQPGRSLRLSCTASGFTFTDNYMSWVRQAPGKGLEWVGFIRNKANGYTTEYAASVKGRFTISRDNSKSIAYLQMNSLKTEDTAVYYCARDVGSNYFDYWGQGTLVTVSS VL: DIVMTQSPSSLAVSLGERATMSCKSSQSLFNSRTRKNYLAWYQQKPGQSPKLLIYWASARDSGVPARFTGSGSETYFTLTISRVQAEDLAVYYCMQSFNLRTFGQGTKVEIKR", "label value": "yes (1)"}
{"binder": "murine monoclonal antibody 515H7 (antibody, V domains shown) VH: EVNLVESGGGLVQPGGSLRLSCATSGFTFTDNYMSWVRQPPGKALEWLGFIRNKANGYTTDYSASVRGRFTISRDNSQSILYLQMNALRAEDSATYYCARDVGSNYFDYWGQGTTLTVSS VL: DIVMSQSPSSLAVSAGEKVTMSCKSSQSLFNSRTRKNYLAWYQQKPGQSPKLLIYWASARDSGVPARFTGSGSETYFTLTISRVQAEDLAVYYCMQSFNLRTFGQGTKVEIK", "label value": "yes (1)"}
{"binder": "anti-CXCR4 chimeric Mab c515H7 (antibody, human IgG1, kappa, V domains shown, also called chimeric 515H7; chimeric antibody) VH: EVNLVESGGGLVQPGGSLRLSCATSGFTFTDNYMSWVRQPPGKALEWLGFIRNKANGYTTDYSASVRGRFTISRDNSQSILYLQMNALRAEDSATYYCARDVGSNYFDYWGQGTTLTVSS VL: DIVMSQSPSSLAVSAGEKVTMSCKSSQSLFNSRTRKNYLAWYQQKPGQSPKLLIYWASARDSGVPARFTGSGSETYFTLTISRVQAEDLAVYYCMQSFNLRTFGQGTKVEIKR", "label value": "yes (1)"}
{"binder": "humanized antibody Hz515H7 VH1 D76N VL2.3 (antibody, human IgG1, kappa, V domains shown, human IgG1/kappa format; also called hz515H7VL2.3) VH: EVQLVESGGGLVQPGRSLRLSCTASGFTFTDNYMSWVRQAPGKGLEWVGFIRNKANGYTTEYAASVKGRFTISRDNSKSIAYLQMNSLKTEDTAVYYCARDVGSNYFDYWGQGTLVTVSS VL: DIVMTQSPDSLAVSLGERATMSCKSSQSLFNSRTRKNYLAWYQQKPGQPPKLLIYWASARDSGVPDRFTGSGSETYFTLTISSLQAEDLAVYYCMQSFNLRTFGQGTKVEIKR", "label value": "no (0)"}
{"binder": "humanized antibody Hz515H7 VH1 D76N VL2.2 (antibody, human IgG1, kappa, V domains shown, human IgG1/kappa format; also called hz515H7VL2.2) VH: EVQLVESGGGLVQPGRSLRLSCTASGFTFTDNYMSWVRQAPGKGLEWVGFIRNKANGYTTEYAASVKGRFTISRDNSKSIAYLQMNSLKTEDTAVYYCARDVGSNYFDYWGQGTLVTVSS VL: DIVMTQSPDSLAVSLGERATMSCKSSQSLFNSRTRKNYLAWYQQKPGQPPKLLIYWASARDSGVPDRFTGSGSETYFTLTISRVQAEDVAVYYCMQSFNLRTFGQGTKVEIKR", "label value": "no (0)"}
